The reported measurements were obtained from patent US7928140B2.

Target: PI3K β (Homo sapiens)
Construct: Full length p110 subunits of PI3K α, β and δ, N-terminally labeled with polyHis tag; polyHis (N)
Sequence (P42338 whole entry): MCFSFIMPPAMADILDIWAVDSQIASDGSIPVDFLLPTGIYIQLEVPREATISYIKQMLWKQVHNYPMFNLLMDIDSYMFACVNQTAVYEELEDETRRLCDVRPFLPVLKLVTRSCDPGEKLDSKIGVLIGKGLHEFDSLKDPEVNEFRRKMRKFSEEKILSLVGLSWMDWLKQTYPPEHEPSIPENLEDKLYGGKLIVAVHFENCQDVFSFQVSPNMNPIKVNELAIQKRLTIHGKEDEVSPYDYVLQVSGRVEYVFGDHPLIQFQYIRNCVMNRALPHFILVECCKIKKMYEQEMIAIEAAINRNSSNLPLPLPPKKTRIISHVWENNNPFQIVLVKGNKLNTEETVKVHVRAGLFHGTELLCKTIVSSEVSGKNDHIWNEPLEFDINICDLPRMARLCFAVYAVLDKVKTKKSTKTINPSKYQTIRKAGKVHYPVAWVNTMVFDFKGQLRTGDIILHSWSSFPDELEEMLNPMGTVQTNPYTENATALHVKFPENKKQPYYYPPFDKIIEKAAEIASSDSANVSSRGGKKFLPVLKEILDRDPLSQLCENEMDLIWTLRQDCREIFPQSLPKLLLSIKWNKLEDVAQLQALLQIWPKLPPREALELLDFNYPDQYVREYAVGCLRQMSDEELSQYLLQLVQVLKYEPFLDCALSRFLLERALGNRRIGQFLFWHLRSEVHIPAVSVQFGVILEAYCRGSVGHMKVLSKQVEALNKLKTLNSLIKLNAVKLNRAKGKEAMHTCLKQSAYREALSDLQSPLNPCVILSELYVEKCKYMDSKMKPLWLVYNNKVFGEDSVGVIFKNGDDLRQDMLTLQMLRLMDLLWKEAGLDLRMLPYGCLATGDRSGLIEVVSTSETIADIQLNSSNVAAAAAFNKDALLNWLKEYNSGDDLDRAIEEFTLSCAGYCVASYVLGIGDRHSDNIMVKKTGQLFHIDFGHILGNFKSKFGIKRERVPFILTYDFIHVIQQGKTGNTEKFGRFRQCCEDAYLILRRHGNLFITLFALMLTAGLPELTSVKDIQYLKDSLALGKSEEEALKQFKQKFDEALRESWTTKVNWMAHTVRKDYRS
Sequence (P27986 whole entry partner): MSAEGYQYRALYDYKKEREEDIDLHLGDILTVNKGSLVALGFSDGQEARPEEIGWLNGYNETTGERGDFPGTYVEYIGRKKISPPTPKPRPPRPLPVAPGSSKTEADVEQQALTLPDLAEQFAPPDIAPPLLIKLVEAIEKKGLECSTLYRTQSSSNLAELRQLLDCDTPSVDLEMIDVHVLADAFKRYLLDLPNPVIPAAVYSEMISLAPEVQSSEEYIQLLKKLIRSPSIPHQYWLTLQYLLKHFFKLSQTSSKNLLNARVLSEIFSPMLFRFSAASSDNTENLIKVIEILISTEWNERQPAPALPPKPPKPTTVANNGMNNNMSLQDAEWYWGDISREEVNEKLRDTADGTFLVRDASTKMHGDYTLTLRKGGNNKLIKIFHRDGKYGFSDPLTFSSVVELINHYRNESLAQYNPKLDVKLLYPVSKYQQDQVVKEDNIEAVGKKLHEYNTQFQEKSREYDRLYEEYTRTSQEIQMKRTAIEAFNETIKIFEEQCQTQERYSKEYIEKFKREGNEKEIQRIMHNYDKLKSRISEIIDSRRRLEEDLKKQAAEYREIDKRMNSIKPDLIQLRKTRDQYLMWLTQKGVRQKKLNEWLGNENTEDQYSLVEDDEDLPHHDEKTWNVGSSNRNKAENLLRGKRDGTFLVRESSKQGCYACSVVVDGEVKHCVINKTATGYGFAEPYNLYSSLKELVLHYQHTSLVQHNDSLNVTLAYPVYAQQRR
Assay: In vitro PI3 kinase enzyme assay (beta), ATP loss, bioluminescence
Conditions: read-out: PI3Kβ ATP loss IC50
observed-property: log10 of IC50 (log10 of the value in nM)

[
  {
    "compound": "Nc1nc2ccc(-c3cnc(Cl)c(NS(=O)(=O)c4ccc(F)cc4)c3)cc2s1",
    "observed-property": "log10 of IC50",
    "value-observed": 1.06
  },
  {
    "compound": "CC(=O)Nc1nc2ccc(-c3cnc(Cl)c(NS(=O)(=O)N4CCCCC4)c3)cc2s1",
    "observed-property": "log10 of IC50",
    "value-observed": 1.55
  },
  {
    "compound": "CC(=O)Nc1nc2ccc(-c3cncc(OCc4ccccc4)n3)cc2s1",
    "observed-property": "log10 of IC50",
    "value-observed": 2.34
  },
  {
    "compound": "CC(=O)Nc1nc2ccc(-c3cnc(Cl)c(NS(=O)(=O)c4ccc(Cl)cc4)c3)cc2s1",
    "observed-property": "log10 of IC50",
    "value-observed": 0.94
  },
  {
    "compound": "CC(=O)Nc1nc2ccc(-c3ccnc(N(C)S(=O)(=O)c4ccc5ccccc5c4)n3)cc2s1",
    "observed-property": "log10 of IC50",
    "value-observed": 1.94
  },
  {
    "compound": "COc1ccc(OC)c(Sc2nccc(-c3ccc4nc(NC(C)=O)sc4c3)n2)c1",
    "observed-property": "log10 of IC50",
    "value-observed": 2.63
  },
  {
    "compound": "COc1cc(-c2ccc3nc(NC(C)=O)sc3c2)cnc1Cl",
    "observed-property": "log10 of IC50",
    "value-observed": 3.11
  },
  {
    "compound": "COc1ccc(S(=O)(=O)Nc2nccc(-c3cc(F)c4nc(NC(C)=O)sc4c3)n2)cc1",
    "observed-property": "log10 of IC50",
    "value-observed": 2.10
  },
  {
    "compound": "CC(=O)Nc1nc2ccc(-c3cncc(N(C)S(=O)(=O)c4ccc(C(C)(C)C)cc4)c3)cc2s1",
    "observed-property": "log10 of IC50",
    "value-observed": 3.58
  },
  {
    "compound": "CC(=O)Nc1nc2ccc(-c3cnc(Cl)c(NS(=O)(=O)c4cccc(OC(F)F)c4)c3)cc2s1",
    "observed-property": "log10 of IC50",
    "value-observed": 1.09
  },
  {
    "compound": "CC(=O)Nc1nc2ccc(-c3ccnc(N4CCCC4c4ccccc4C)n3)cc2s1 (racemic)",
    "observed-property": "log10 of IC50",
    "value-observed": 2.89
  },
  {
    "compound": "CC(=O)c1ccc(S(=O)(=O)Nc2cc(-c3ccc4nc(N)sc4c3)cnc2Cl)cc1",
    "observed-property": "log10 of IC50",
    "value-observed": 1.31
  },
  {
    "compound": "CC(=O)c1cncc(-c2ccc3ncsc3c2)c1",
    "observed-property": "log10 of IC50",
    "value-observed": 4.12
  },
  {
    "compound": "CC(=O)Nc1nc2ccc(-c3cnc(Cl)c(NS(=O)(=O)c4ccc(C(C)O)cc4)c3)cc2s1 (single isomer, unassigned) [Example 258]",
    "observed-property": "log10 of IC50",
    "value-observed": 1.06
  },
  {
    "compound": "CC(=O)Nc1nc2ccc(-c3cnc(Cl)c(NS(=O)(=O)c4ccc(C(C)(C)O)cc4)c3)cc2s1",
    "observed-property": "log10 of IC50",
    "value-observed": 1.65
  }
]

* * *

Target: PI3K β (Homo sapiens)
Construct: Full length p110 subunits of PI3K α, β and δ, N-terminally labeled with polyHis tag; polyHis (N); made in house; host or cells: Sf9 insect cells (baculovirus)
Assay: In vitro PI3 kinase enzyme assay (beta), ATP loss, bioluminescence
Type: biochemical
Conditions: read-out: PI3Kβ ATP loss IC50
observed-property: IC50 (nM)

[
  {
    "compound": "CC(=O)Nc1nc2ccc(-c3ccnc(Sc4ccc(C)cc4C)n3)cc2s1 [Example 122]",
    "value-observed": 260
  },
  {
    "compound": "Nc1nc2ccc(-c3cnc(Cl)c(NS(=O)(=O)c4ccc(F)cc4F)c3)cc2s1 [Example 311]",
    "value-observed": 49.1
  },
  {
    "compound": "CC(=O)Nc1nc2ccc(-c3ccnc(N(C)S(=O)(=O)c4ccc(C)cc4C)n3)cc2s1 [Example 212]",
    "value-observed": 60.3
  },
  {
    "compound": "CC(=O)Nc1nc2ccc(-c3ccnc(NS(=O)(=O)c4cccc(F)c4)n3)cc2s1 [Example 82]",
    "value-observed": 304
  },
  {
    "compound": "CC(=O)Nc1nc2ccc(-c3cncc(NS(=O)(=O)c4ccc(F)cc4)c3)cc2s1 [Example 198]",
    "value-observed": 14.7
  },
  {
    "compound": "CC(=O)Nc1nc2ccc(-c3cncc(NS(=O)(=O)c4ccc(F)cc4)c3)nc2s1 [Example 228]",
    "value-observed": 55.9
  },
  {
    "compound": "CC(C)(C)Nc1cc(-c2ccc3nc(N)sc3c2)cnc1Cl [Example 315]",
    "value-observed": 2940
  },
  {
    "compound": "CC(=O)Nc1nc2ccc(-c3ccnc(OCCCc4cccnc4)n3)cc2s1 [Example 1]",
    "value-observed": 3610
  },
  {
    "compound": "CC(=O)Nc1nc2ccc(-c3cnc(Cl)c(NS(=O)(=O)c4ccc(C(C)=O)cc4)c3)cc2s1 [Example 119]",
    "value-observed": 13.5
  },
  {
    "compound": "COc1ccc(S(=O)(=O)c2cccc(-c3cc(F)c4nc(NC(C)=O)sc4c3)n2)cc1 [Example 148]",
    "value-observed": 1360
  },
  {
    "compound": "CC(=O)Nc1nc2ccc(-c3ccnc(N(C)S(=O)(=O)c4cccc(C)c4)n3)cc2s1 [Example 93]",
    "value-observed": 174
  },
  {
    "compound": "CC(=O)Nc1nc2ccc(-c3cccc(N(C)S(=O)(=O)c4ccc(C)cc4)n3)cc2s1 [Example 74]",
    "value-observed": 202
  },
  {
    "compound": "CC(=O)Nc1nc2ccc(-c3ccnc(OCCc4cccnc4)n3)cc2s1 [Example 18]",
    "value-observed": 32200
  },
  {
    "compound": "CC(=O)Nc1nc2ccc(-c3ccnc(N(C)S(=O)(=O)c4cccc5cnccc45)n3)cc2s1 [Example 208]",
    "value-observed": 743
  },
  {
    "compound": "CC(C)Nc1cc(-c2ccc3nc(NC(=O)C[C@@H]4CCCO4)sc3c2)cnc1Cl [Example 151]",
    "value-observed": 1620
  },
  {
    "compound": "CC(=O)Nc1nc2ccc(-c3cnc(Cl)c(NS(=O)(=O)C4CCCCC4)c3)cc2s1 [Example 171]",
    "value-observed": 26.3
  },
  {
    "compound": "CSc1nccc(-c2ccc3nc(NC(C)=O)sc3c2)n1 [Example 50]",
    "value-observed": 1180
  }
]

* * *

Biological target: PI3K β (Homo sapiens)
Construct: Full length p110 subunits of PI3K α, β and δ, N-terminally labeled with polyHis tag; polyHis (N)
Experiment: In vitro PI3 kinase enzyme assay (beta), ATP loss, bioluminescence;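 note: purified p110β/p85 heterodimer with PtdIns(4,5)P2 as acceptor, incubated at room temperature, leftover ATP read by luminescence, inhibition scaled to compound-free wells with and without enzyme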
Details: read-out: PI3Kβ ATP loss IC50
IC50 for assorted compounds

[
  {
    "compound": "CC(=O)Nc1nc2ccc(-c3ccnc(Sc4ccc(C)cc4)n3)cc2s1 [Example 36]",
    "target": "PI3K β (Homo sapiens)",
    "unit-tag": "nM",
    "prefix-operator": "=",
    "IC50": 554
  },
  {
    "compound": "CCOc1ccc(-c2ccc3nc(NC(C)=O)sc3c2)cn1 [Example 243]",
    "target": "PI3K β (Homo sapiens)",
    "unit-tag": "nM",
    "prefix-operator": ">",
    "IC50": 40000
  },
  {
    "compound": "CC(=O)Nc1nc2ccc(-c3cncc(OCCN4CCC(C)(C)C4=O)c3)cc2s1 [Example 252]",
    "target": "PI3K β (Homo sapiens)",
    "unit-tag": "nM",
    "prefix-operator": "=",
    "IC50": 45000
  },
  {
    "compound": "CC(=O)Nc1nc2ccc(-c3cncc(NS(=O)(=O)c4ccccc4)c3)cc2s1 [Example 202]",
    "target": "PI3K β (Homo sapiens)",
    "unit-tag": "nM",
    "prefix-operator": "=",
    "IC50": 31.7
  },
  {
    "compound": "CC(=O)Nc1nc2ccc(-c3cnc(Cl)c(N(C(=O)OC(C)(C)C)C(=O)OC(C)(C)C)c3)cc2s1 [Example 277]",
    "target": "PI3K β (Homo sapiens)",
    "unit-tag": "nM",
    "prefix-operator": "=",
    "IC50": 4800
  },
  {
    "compound": "CC(=O)Nc1nc2ccc(-c3cnc(Cl)c(NS(=O)(=O)c4ccc(Cl)s4)c3)cc2s1 [Example 193]",
    "target": "PI3K β (Homo sapiens)",
    "unit-tag": "nM",
    "prefix-operator": "=",
    "IC50": 9.6
  },
  {
    "compound": "CC(=O)Nc1nc2ccc(-c3cnc(Cl)c(OC(C)C#N)c3)cc2s1 (centres unmarked) [Example 290]",
    "target": "PI3K β (Homo sapiens)",
    "unit-tag": "nM",
    "prefix-operator": "=",
    "IC50": 747
  },
  {
    "compound": "CCc1ccc(S(=O)(=O)Nc2nccc(-c3ccc4nc(NC(C)=O)sc4c3)n2)cc1 [Example 84]",
    "target": "PI3K β (Homo sapiens)",
    "unit-tag": "nM",
    "prefix-operator": "=",
    "IC50": 79.3
  }
]
